The reported numbers originate from ChEMBL document CHEMBL1151964.

molecular target: Cruzipain (Trypanosoma cruzi, UniProt P25779); test: Competitive inhibition of Trypanosoma cruzi cruzain by Lineweaver-Burke plot analysis
Sequence (P25779 whole entry): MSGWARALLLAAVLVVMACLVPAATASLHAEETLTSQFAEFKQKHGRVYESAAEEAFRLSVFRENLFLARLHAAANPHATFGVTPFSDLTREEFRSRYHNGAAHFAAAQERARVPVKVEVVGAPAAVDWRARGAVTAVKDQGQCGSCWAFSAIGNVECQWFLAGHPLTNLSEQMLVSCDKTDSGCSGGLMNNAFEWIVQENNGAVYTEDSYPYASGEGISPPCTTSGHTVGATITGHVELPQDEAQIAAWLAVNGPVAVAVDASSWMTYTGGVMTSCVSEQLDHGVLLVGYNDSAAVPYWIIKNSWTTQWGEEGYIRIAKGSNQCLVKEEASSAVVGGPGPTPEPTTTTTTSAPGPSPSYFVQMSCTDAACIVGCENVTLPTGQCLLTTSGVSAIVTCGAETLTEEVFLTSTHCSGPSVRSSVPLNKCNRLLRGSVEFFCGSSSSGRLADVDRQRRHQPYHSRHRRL
OBSERVABLE: pKi
pKi (log units): -log10 of the concentration in mol/L.

Request: Form field: reported pKi of Nc1ncccc1C(=O)OCC(=O)Nc1cc(Cl)ccc1Cl
Response: 4.49

---

What Activity was measured for each of the following?
molecular target: UniProt:P25779; experiment: Inhibition of Trypanosoma cruzi cruzain assessed as colloidal aggregates particles formation after 5 mins by flow cytometry
Your answer should be a plain number; it is taken to be in µM.

Request: Form field: reported Activity of CC(C)(C)c1cc(NC(=O)c2nnc(-c3ccccc3N)o2)n[nH]1
Response: 3.1

Request: Form field: reported Activity of Cn1ccc(NC(=O)c2nnc(-c3ccccc3N)o2)n1
Response: 200

Request: Form field: reported Activity of COc1ccc(-c2cc(NC(=O)c3nnc(-c4ccccc4N)o3)n[nH]2)cc1
Response: 3.1

Request: Form field: reported Activity of Cc1cc(NC(=O)c2nnc(-c3ccccc3N)o2)n[nH]1
Response: 50

Request: Form field: reported Activity of Nc1ccccc1-c1nnc(C(=O)Nc2cccc(N3CCCC3)c2)o1
Response: 50

---

target: UniProt P25779; test: Inhibition of Trypanosoma cruzi cruzain at 200 uM preincubated for 5 mins before substrate addition
Is inhibition at least 60%? Then 1. If not, -1.

Request: # check: inhibition of O=C(COC(=O)c1ccccn1)Nc1cc(Cl)ccc1Cl is greater than or equal to 60%
Response: -1

Request: # check: inhibition of Nc1ncccc1C(=O)OCC(=O)Nc1cc(Cl)ccc1Cl is greater than or equal to 60%
Response: 1

Request: # check: inhibition of Cc1cccc(C(=O)OCC(=O)Nc2cc(Cl)ccc2Cl)c1 is greater than or equal to 60%
Response: -1

Request: # check: inhibition of Nc1ncccc1C(=O)NCC(=O)NC1CCCCC1 is greater than or equal to 60%
Response: -1

Request: # check: inhibition of Nc1ncccc1C(=O)OCC(=O)NC1CCCCCC1 is greater than or equal to 60%
Response: 1

Request: # check: inhibition of Nc1ncccc1C(=O)OCC(=O)Nc1ccc2c(c1)OCCO2 is greater than or equal to 60%
Response: -1

Request: # check: inhibition of Nc1ccccc1C(=O)NCC(=O)NC1CCCCC1 is greater than or equal to 60%
Response: -1

Request: # check: inhibition of Nc1ncccc1C(=O)OCC(=O)Nc1ccccc1OC(F)F is greater than or equal to 60%
Response: -1

Request: # check: inhibition of CCC(NC(=O)COC(=O)c1cccnc1N)c1ccc(Br)cc1 (stereo not given) is greater than or equal to 60%
Response: 1

---

target: Cruzipain (Trypanosoma cruzi); test: Inhibition of Trypanosoma cruzi cruzain assessed as colloidal aggregates particles formation after 5 mins by flow cytometry in presence of 0.001% Triton X-100
Activity calls are given as the source filed them. No cut-off for these calls is given here.
OBSERVABLE: Activity

COMPOUND	Activity
Nc1ccccc1-c1nnc(C(=O)NCCCN2CCCC2=O)o1	inactive
Nc1ncccc1C(=O)OCC(=O)NC1CCCCCC1	250 nM
CCN1CCC[C@H]1CNC(=O)c1nnc(-c2ccccc2N)o1	inactive
CCC(NC(=O)COC(=O)c1cccnc1N)c1ccc(Br)cc1 (stereo not given)	250 nM

Request: Form field: reported Activity of Nc1ncccc1C(=O)OCC(=O)Nc1cc(Cl)ccc1Cl
Response: 250 nM

---

target: Cruzipain (Trypanosoma cruzi); assay: Inhibition of Trypanosoma cruzi cruzain preincubated for 5 mins before substrate addition
OBSERVABLE: IC50 (µM)
Your answer should be a plain number; it is taken to be in µM.

Request: Form field: reported IC50 of Cc1ccc(-c2cc(NC(=O)c3nnc(-c4ccccc4N)o3)[nH]n2)cc1
Response: 0.5

Request: Form field: reported IC50 of COc1ccc(OC)c(CNC(=O)c2nnc(-c3ccccc3N)o2)c1
Response: 8

Request: Form field: reported IC50 of Nc1ccccc1-c1nnc(C(=O)Nc2ccc3oc4c(c3c2)CCCC4)o1
Response: 2

Request: Form field: reported IC50 of CC1C2CCC(C)(C2)C1NC(=O)c1nnc(-c2ccccc2N)o1 (stereo unspecified)
Response: 36

Request: Form field: reported IC50 of Cc1cc(NC(=O)c2nnc(-c3ccccc3N)o2)[nH]n1
Response: 11

Request: Form field: reported IC50 of Nc1ccccc1-c1nnc(C(=O)NCc2ccc(C(F)(F)F)c(F)c2)o1
Response: 10

---

target: Cruzipain (Trypanosoma cruzi, UniProt P25779); assay: Inhibition of Trypanosoma cruzi cruzain preincubated for 5 mins before substrate addition
What pIC50 was measured for each of the following?
pIC50 (log units): -log10 of the concentration in mol/L.

Request: Form field: reported pIC50 of Nc1ccccc1-c1nnc(C(=O)NCc2ccc(Cn3cccn3)cc2)o1
Response: 5.10

Request: Form field: reported pIC50 of Nc1ccccc1-c1nnc(C(=O)NCc2ccccc2OC2CCOCC2)o1
Response: 4.38

Request: Form field: reported pIC50 of Nc1ccccc1-c1nnc(C(=O)NCc2nc3ccccc3[nH]2)o1
Response: 4.77

Request: Form field: reported pIC50 of Nc1ccccc1-c1nnc(C(=O)NCc2ccc(Oc3ccccc3)cc2)o1
Response: 5.22

Request: Form field: reported pIC50 of Nc1ccccc1-c1nnc(C(=O)N[C@@H]2c3ccccc3C[C@@H]2O)o1
Response: 4.49

---

target: Cruzipain (Trypanosoma cruzi); experiment: Inhibition of Trypanosoma cruzi cruzain preincubated for 5 mins before substrate addition in presence of 0.001% Triton X-100
OBSERVABLE: IC50

Request: Form field: reported IC50 of Cc1ccc(-c2cc(NC(=O)c3nnc(-c4ccccc4N)o3)[nH]n2)cc1
Response: 0.5 µM

Request: Form field: reported IC50 of CCN1CCC[C@H]1CNC(=O)c1nnc(-c2ccccc2N)o1
Response: > 100 µM

Request: Form field: reported IC50 of Nc1ccccc1-c1nnc(C(=O)Nc2ccc3oc4c(c3c2)CCCC4)o1
Response: 2 µM

Request: Form field: reported IC50 of CC(C)(C)c1cc(NC(=O)c2nnc(-c3ccccc3N)o2)[nH]n1
Response: 2 µM

Request: Form field: reported IC50 of Cc1cc2cc(NC(=O)c3nnc(-c4ccccc4N)o3)ccc2[nH]1
Response: 6 µM

Request: Form field: reported IC50 of Nc1ccccc1-c1nnc(C(=O)Nc2cc(-c3cccs3)n[nH]2)o1
Response: 1 µM

Request: Form field: reported IC50 of Cc1cc(NC(=O)c2nnc(-c3ccccc3N)o2)[nH]n1
Response: 11 µM

Request: Form field: reported IC50 of Cn1ccc(NC(=O)c2nnc(-c3ccccc3N)o2)n1
Response: > 100 µM

Request: Form field: reported IC50 of COc1ccc(OC)c(CNC(=O)c2nnc(-c3ccccc3N)o2)c1
Response: 8 µM

Request: Form field: reported IC50 of Nc1ncccc1C(=O)OCC(=O)Nc1cc(Cl)ccc1Cl
Response: 27 µM

Request: Form field: reported IC50 of Nc1ccccc1-c1nnc(C(=O)NCCCN2CCCC2=O)o1
Response: > 100 µM

Request: Form field: reported IC50 of Nc1ccccc1-c1nnc(C(=O)Nc2cc(-c3ccccc3)[nH]n2)o1
Response: 0.8 µM

Request: Form field: reported IC50 of Nc1ccccc1-c1nnc(C(=O)NCCN2CCOCC2)o1
Response: > 100 µM

Request: Form field: reported IC50 of COc1ccc(-c2cc(NC(=O)c3nnc(-c4ccccc4N)o3)n[nH]2)cc1
Response: 0.2 µM

Request: Form field: reported IC50 of Nc1ccccc1-c1nnc(C(=O)Nc2cccc(N3CCCC3)c2)o1
Response: 7 µM

Request: Form field: reported IC50 of Nc1ccccc1-c1nnc(C(=O)NCc2c(Cl)cccc2Cl)o1
Response: 8 µM

---

biological target: Cruzipain (Trypanosoma cruzi, UniProt P25779); assay: Inhibition of Trypanosoma cruzi cruzain preincubated for 5 mins before substrate addition in presence of 0.01% Triton X-100
What pIC50 was measured for each of the following?
pIC50 (log units): -log10 of the concentration in mol/L.

Request: Form field: reported pIC50 of Nc1ccccc1-c1nnc(C(=O)Nc2nnc(-c3ccc(Cl)cc3)s2)o1
Response: 5.40

Request: Form field: reported pIC50 of CC(NC(=O)c1nnc(-c2ccccc2N)o1)C12CC3CC(CC(C3)C1)C2 (stereo not drawn)
Response: 4.74

Request: Form field: reported pIC50 of Nc1ncccc1C(=O)OCC(=O)Nc1ccccc1OC(F)F
Response: 3.90

Request: Form field: reported pIC50 of NC(=O)c1ccsc1NC(=O)COC(=O)c1cc(Br)ccc1N
Response: 4.05

Request: Form field: reported pIC50 of Nc1ccccc1-c1nnc(C(=O)NC2Cc3ccccc3C2)o1
Response: 4.96

Request: Form field: reported pIC50 of Nc1ccccc1-c1nnc(C(=O)NCc2csc(-c3cccs3)n2)o1
Response: 5.70

Request: Form field: reported pIC50 of Nc1ccccc1-c1nnc(C(=O)Nc2ccc(N3CCOCC3)cc2)o1
Response: 4.21

Request: Form field: reported pIC50 of Nc1ccccc1-c1nnc(C(=O)NCc2ccnc(N3CCOCC3)c2)o1
Response: 4.08

Request: Form field: reported pIC50 of Nc1ncccc1C(=O)OCC(=O)Nc1ccc2c(c1)OCCO2
Response: 3.74

Request: Form field: reported pIC50 of Nc1ccccc1-c1nnc(C(=O)NCc2ccc(Oc3ccccc3)cc2)o1
Response: 5.22
